target-desc: CRF1R
protocol-description: cell-based or functional assay
Ends that are not written are not given here.
reported-metric: CRF1R EC50 (nM)

* ZGPPISIDLPLYLLRKMIEIEKQEKEKQQAANNALLLDTI (C-terminal amide) [SEQ ID NO 244] | 300
* IVLSLDVSIGLLQILLEQARARAAREQATTNARILARV-NH2 [SEQ ID NO 370] | 1000
* ZGPPISIDLPLYLLRKMIEIEKQEKEKQQATTNARLLDRV (C-terminal amide) [SEQ ID NO 243] | 440
* ZGPPISIDLPYFLLRKMIEIEKQEKEKQQAANNRLLLDTI (C-terminal amide) [SEQ ID NO 220] | 63.6
* ZGPPISIDLPLQLLRKVIEIEKQEKEKQQATTNARILARV (C-terminal amide) [SEQ ID NO 320] | 718
* ZGPPISIDVPIGLLRKMIEIEKQEKEKQQAANNRLLLDTI (not fully specified; C-terminal amide) [SEQ ID NO 254] | 708
* ZGPPISIDLPLHLLRKMIEIEKQEKEKQQATTNARLLDTV (C-terminal amide) [SEQ ID NO 238] | 753
* ZGPPISIDLPYWLLRKMIEIEKQEKEKQQAANNARLLARI (C-terminal amide) [SEQ ID NO 289] | 1000
* DNPSLSIDVPLLLLRTLLELEKTQSQRERAEQNARIFARV-NH2 [SEQ ID NO 384] | 1000
* DNPSLSIDLPLILLRTLLELEKTQSQRERAEQNARIFDRV-NH2 [SEQ ID NO 337] | 1000
* DNPSLSIDLPLILLRTLLELARTQSQRERAEQNARIFARV-NH2 [SEQ ID NO 330] | 1000
* ZGPPISIDLPLYLLRKMIEIEKQEKEKQQATTNARILARV (C-terminal amide) [SEQ ID NO 353] | 230
* ZGPPISIDLPYHLLRKVIEIEKQEKEKQQAANNALLLDTI (C-terminal amide) [SEQ ID NO 312] | 870
* ZGPPISIDLPQFLLRKMIEIEKQEKEKQQAANNRLLLDTI (C-terminal amide) [SEQ ID NO 221] | 236
* ZGPPISIDLPYYLLRKMIEIEKQEKEKQQAANNALLLDTI (C-terminal amide) [SEQ ID NO 226] | 315
* ZGPPISIDLPFQLLRKVIEIEKQEKEKQQAANNAHLLAHI (C-terminal amide) [SEQ ID NO 277] | 1000
* DNPSLSIDLPLLLLRTLLELEKTQSQRERAEQNAIIFASV-NH2 [SEQ ID NO 346] | 1000
* ZGPPISIDLPFQLLRILIEIEKQEKEKQQAANNRLLLDTI (not fully specified; C-terminal amide) [SEQ ID NO 255] | 33.3
* ZGPPISIDLPLYLLRKMIEIEKQEKEKQQAANNALLLATI (C-terminal amide) [SEQ ID NO 245] | 381
* DNPSLSIDVPFFLLRTLLELEKTQSQRERAEQNARIFARV-NH2 [SEQ ID NO 386] | 1000
* ZGPPISIDLPTWLLRKVIEIEKQEKEKQQAANNRLLLDTI (C-terminal amide) [SEQ ID NO 284] | 1000
* ZGPPISIDLSLELLRKMIEIEKQEKEKQQAANNRLLLDTI (C-terminal amide) [SEQ ID NO 355] | 18
* ZGPPISIDLPFQLLRKVIEIEKQEKEKQQAANNALLLATI (C-terminal amide) [SEQ ID NO 352] | 780
* ZGPPISIDLPHALLRKMIEIEKQEKEKQQAANNRLLLDTI (C-terminal amide) [SEQ ID NO 304] | 116
